# key: entry, value: EC50
test system: erythroid progenitor cells (EPCs); experiment: Fetal hemoglobin (HbF) ELISA in day 7 erythroid progenitor cells; type: cell-based, human; conditions: Homo sapiens, Erythroid progenitor cell, HbF ELISA, day 7 EPCs, 5 days; read-out: EPC ELISA (pEC50 category) (converted);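 also: for fetal hemoglobin induction normalized to vehicle-treated cells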
Structures can show the parent of a compound that is named as a salt.

Reference set, count: 6
CCc1c(C#N)c(SC(C(N)=O)c2ccccc2)nc(N(C)CCOP(=O)(O)O)c1C#N (stereo not drawn) : > 31600 nM
CCc1c(C#N)c(SC(C(N)=O)c2ccccc2)nc(N2CCC(NCCOC)C(F)C2)c1C#N (stereo not drawn) : < 316 nM
CCc1c(C#N)c(SC(C(N)=O)c2ccccc2)nc(N2CCN(N)CC2)c1C#N (stereo not drawn) [Example 234, Trifluoroacetic Acid Salt] : 1000 to 31600 nM
CN(CC(=O)N1CC(O)C1)c1nc(SC(C(N)=O)c2ccccc2)c(C#N)c(C2CC2)c1C#N (stereo not drawn) : 316 to 1000 nM
CCc1c(C#N)c(SC(C(N)=O)c2ccc(S(=O)(=O)NC)cc2)nc(N(C)C)c1C#N (stereo not drawn) : 1000 to 31600 nM
CCc1c(C#N)c(SCc2ccc(-c3ccncc3)cc2)nc(N2CCC(N3CCCC3)CC2)c1C#N : > 31600 nM

Q) Item CCc1c(C#N)c(SC(C(N)=O)c2ccnc(C)c2)nc(N2CCCN(C)CC2)c1C#N (stereo not drawn) has what recorded EC50?
A) > 31600 nM

Q) # lookup: EC50 of CCc1c(C#N)c(S[C@@H](C(N)=O)c2ccccc2)nc(N2CC[C@@H](N)[C@H](F)C2)c1C#N [Example 518, Trifluoroacetic acid salt]
A) < 316 nM

Q) Give its EC50 value. Item: CCc1c(C#N)c(SC(C(N)=O)c2ccccc2)nc(N2CCC(NC(=O)[C@@H](C)N)CC2)c1C#N (stereo partly drawn) [Example 366, Hydrochloride]
A) < 316 nM

Q) Look at this compound and give its reported EC50. CN(CCO)c1nc(SC(C(N)=O)c2ccccc2)c(C#N)c(C2CC2)c1C#N (stereo not drawn)
A) 1000 to 31600 nM

Q) EC50 for CCc1c(C#N)c(SC(C(N)=O)c2ccccc2)nc(N2CCC(NCc3ccc(F)cc3)CC2)c1C#N (stereo not drawn) ?
A) < 316 nM

Q) Which EC50 reading was recorded for the compound CCc1c(C#N)c(SC(C(N)=O)c2ccccc2)nc(N2CCN(Cc3cnc[nH]3)CC2)c1C#N (stereo not drawn) ?
A) 1000 to 31600 nM

Q) Endpoint output: EC50 of CN(C)C1CCN(c2nc(SC(C(N)=O)c3ccccc3)c(C#N)c(C3CC3)c2C#N)CC1 (stereo not drawn) . Value?
A) < 316 nM

Q) Query (compound): CCc1c(C#N)c(S[C@@H](C(N)=O)c2ccccc2)nc(N2CC[C@](F)(CN)C2)c1C#N ; field requested: EC50
A) 316 to 1000 nM

====

The compounds listed here are annotated with their log10 of IC50.
molecular target: DNMT1 (Homo sapiens); assay: DNMT1 biochemical activity, breaklight assay and/or SPA assay; conditions: breaklight assay and/or SPA assay, repeated experimental runs; read-out: average pIC50 against DNMT1 (converted)
Sequence (P26358 whole entry, looked up): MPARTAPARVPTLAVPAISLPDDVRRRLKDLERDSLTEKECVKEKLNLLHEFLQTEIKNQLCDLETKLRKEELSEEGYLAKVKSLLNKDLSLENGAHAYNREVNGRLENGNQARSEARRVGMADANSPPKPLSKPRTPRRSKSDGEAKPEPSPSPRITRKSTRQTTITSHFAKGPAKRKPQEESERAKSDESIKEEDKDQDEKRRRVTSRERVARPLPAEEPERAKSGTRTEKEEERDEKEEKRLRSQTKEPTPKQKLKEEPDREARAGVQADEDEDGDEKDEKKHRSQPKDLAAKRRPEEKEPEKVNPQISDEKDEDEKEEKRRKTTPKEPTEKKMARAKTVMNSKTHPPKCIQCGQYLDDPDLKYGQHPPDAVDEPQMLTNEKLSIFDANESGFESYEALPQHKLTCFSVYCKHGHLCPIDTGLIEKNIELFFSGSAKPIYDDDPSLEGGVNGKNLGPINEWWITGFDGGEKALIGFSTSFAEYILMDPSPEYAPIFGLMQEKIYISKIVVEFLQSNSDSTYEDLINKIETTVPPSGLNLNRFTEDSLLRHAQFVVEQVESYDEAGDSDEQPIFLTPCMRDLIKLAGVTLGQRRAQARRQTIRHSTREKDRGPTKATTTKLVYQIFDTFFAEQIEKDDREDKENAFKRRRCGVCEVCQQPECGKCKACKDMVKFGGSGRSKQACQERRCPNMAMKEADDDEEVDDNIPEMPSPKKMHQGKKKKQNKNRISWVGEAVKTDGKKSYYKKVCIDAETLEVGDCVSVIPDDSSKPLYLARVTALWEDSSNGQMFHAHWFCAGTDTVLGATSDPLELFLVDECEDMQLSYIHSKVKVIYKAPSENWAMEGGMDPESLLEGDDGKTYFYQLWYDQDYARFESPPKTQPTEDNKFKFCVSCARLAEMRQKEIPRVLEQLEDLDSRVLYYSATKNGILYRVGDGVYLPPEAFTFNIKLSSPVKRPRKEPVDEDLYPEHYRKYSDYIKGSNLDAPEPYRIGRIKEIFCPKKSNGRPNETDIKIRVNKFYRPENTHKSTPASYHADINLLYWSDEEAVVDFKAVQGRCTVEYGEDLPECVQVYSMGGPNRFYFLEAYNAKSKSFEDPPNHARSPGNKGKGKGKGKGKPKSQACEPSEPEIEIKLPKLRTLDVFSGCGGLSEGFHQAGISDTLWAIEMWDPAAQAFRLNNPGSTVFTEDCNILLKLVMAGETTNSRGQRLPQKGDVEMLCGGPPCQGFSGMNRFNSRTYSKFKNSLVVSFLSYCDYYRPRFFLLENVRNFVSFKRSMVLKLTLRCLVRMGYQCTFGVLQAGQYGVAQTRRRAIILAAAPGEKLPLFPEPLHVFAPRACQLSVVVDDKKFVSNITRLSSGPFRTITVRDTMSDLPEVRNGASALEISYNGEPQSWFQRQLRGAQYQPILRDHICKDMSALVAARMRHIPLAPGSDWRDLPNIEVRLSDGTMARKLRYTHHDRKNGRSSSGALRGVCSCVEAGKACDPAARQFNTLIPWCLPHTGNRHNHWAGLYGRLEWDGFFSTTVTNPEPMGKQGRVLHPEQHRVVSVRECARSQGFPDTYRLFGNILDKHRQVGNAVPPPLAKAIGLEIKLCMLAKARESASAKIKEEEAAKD
Counter-ions that a name gives are not always drawn.
Parameter value (number): base-10 log of IC50 in nM.

Answered cases to consult:
CCc1c(C#N)c(SCc2ccc(CNC(=O)CO)cc2)nc(N2CCCN(C)CC2)c1C#N [Example 86] : 2.30
CCc1c(C#N)c(SC(C(N)=O)c2ccccc2)nc(N(C)CC(=O)N2C[C@@H](CO)[C@H](O)C2)c1C#N (stereo partly shown) [Example 649] : 2.10
N#Cc1c(SC(C(N)=O)c2ccccc2)nc(N2CC[C@H](N)C2)c(C#N)c1C1CC1 (stereo partly shown) [Example 115] : 2.30
CCc1c(C#N)c(S[C@@H](C(N)=O)c2ccccc2)nc(N2CC[C@@H](N)[C@H](O)C2)c1C#N [Example 523] : 1.90
CCc1c(C#N)c(SCc2ccc(-c3cccnc3)cc2)nc(N2CCC(N3CCCC3)CC2)c1C#N [Example 337] : 3.50
CCc1c(C#N)c(SC(C(N)=O)c2ccccc2)nc(N2CCO[C@H](CNC(=O)CN)C2)c1C#N (stereo partly shown) [Example 592] : 2.20
CCc1c(C#N)c(SC(C(N)=O)c2ccccc2)nc(N2CCC(NC(=O)[C@H](C)N)CC2)c1C#N (stereo partly shown) [Example 138, Trifluoroacetic Acid Salt] : 2.00
CCc1c(C#N)c(SC(C(N)=O)c2ccccc2)nc(N2CCC(NCC(C)(C)C)C(F)C2)c1C#N (stereo not shown) [Example 409] : 2.20

Q) Return log10 of IC50 measured with DNMT1 (Homo sapiens) given this compound: CCc1c(C#N)c(S[C@@H](C(N)=O)c2ccccc2)nc(N2CC[C@H](O)C2)c1C#N [Example 168]
A) 2.30

Q) Request body: readout log10 of IC50, system DNMT1 (Homo sapiens), query CCc1c(C#N)c(SC(C(N)=O)c2ccccc2)nc(N(C)CCN2CCCCCC2)c1C#N (stereo not shown) [Example 477] . Return the value.
A) 2.00

Q) Observed log10 of IC50 on DNMT1 (Homo sapiens) for CCc1c(C#N)c(SCc2ccc(CNS(C)(=O)=O)cc2)nc(N2CCCN(C)CC2)c1C#N [Example 79] , please.
A) 2.50

Q) Missing value: log10 of IC50, DNMT1 (Homo sapiens), entry CCc1c(C#N)c(SC(C(N)=O)c2ccccc2)nc(N2CCOC(CN)C2)c1C#N (stereo not shown) [Example 562] . Fill in?
A) 1.90

Q) Which log10 of IC50 is reported with DNMT1 (Homo sapiens) for this entry: CCc1c(C#N)c(S[C@@H](C(N)=O)c2ccc(F)cc2)nc(N2CC[C@H](O)C2)c1C#N [Example 425] ?
A) 2.20

Q) Value wanted: log10 of IC50 (DNMT1 (Homo sapiens)) of entry CCc1c(C#N)c(SCc2ccc(OS(C)(=O)=O)cc2)nc(N2CCC(N)CC2)c1C#N [Example 626, methanesulfonate 2,2,2-trifluoroacetate]
A) 2.30
